# measurement.target: acetylcholinesterase enzyme from electric eel (Electrophorus electricus)
# Construct: purchased Sigma-Aldrich CAS Number 9000-81-1 (catalogue number not given)
# Sequence (O42275 24-633): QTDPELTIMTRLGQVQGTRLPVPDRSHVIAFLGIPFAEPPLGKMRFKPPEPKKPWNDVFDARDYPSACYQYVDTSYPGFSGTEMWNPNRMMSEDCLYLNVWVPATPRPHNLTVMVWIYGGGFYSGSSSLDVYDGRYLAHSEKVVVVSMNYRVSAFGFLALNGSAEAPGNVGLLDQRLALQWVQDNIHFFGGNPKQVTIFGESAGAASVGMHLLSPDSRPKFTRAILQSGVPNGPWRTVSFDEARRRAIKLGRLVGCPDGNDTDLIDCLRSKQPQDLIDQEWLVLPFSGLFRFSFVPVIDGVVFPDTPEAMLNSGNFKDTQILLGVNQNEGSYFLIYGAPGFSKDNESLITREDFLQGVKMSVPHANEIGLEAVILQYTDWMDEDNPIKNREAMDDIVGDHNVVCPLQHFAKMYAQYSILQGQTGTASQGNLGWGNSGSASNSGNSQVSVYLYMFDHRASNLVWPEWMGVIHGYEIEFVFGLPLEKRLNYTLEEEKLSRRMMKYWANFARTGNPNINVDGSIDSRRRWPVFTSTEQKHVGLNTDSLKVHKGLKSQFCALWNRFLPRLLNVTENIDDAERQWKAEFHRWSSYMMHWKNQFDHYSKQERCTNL
# assay.details: Acetylcholinesterase (AChE) inhibitory assay (DTNB/acetylthiocholine iodide, absorbance at 412 nm)
# Assay type: biochemical
# measurement.conditions: Conc 12.5 ug/ml

- molecule: "O=C(c1ccccc1)C1C(c2cc3ccccc3s2)C2CSCN2[C@@]12C(=O)Nc1ccc(Cl)cc12 (stereo partly shown)"
  measurement.target: "acetylcholinesterase enzyme from electric eel (Electrophorus electricus)"
  inhibition at 12.5 µg/mL: "27.7%"
- molecule: "O=C(c1ccc(C(F)(F)F)cc1)C1C(c2cc3ccccc3s2)C2C3CCCCC3CN2[C@@]12C(=O)Nc1ccc(Cl)cc12 (stereo partly shown)"
  measurement.target: "acetylcholinesterase enzyme from electric eel (Electrophorus electricus)"
  inhibition at 12.5 µg/mL: "41.8%"
- molecule: "O=C(c1ccccc1)C1C(c2cc3ccccc3s2)C2C3CCCCC3CN2[C@@]12C(=O)Nc1ccc(Cl)cc12 (stereo partly shown)"
  measurement.target: "acetylcholinesterase enzyme from electric eel (Electrophorus electricus)"
  inhibition at 12.5 µg/mL: "54.5%"
- molecule: "O=C(c1ccc(Cl)cc1)C1C(c2cc3ccccc3s2)C2C3CCCCC3CN2[C@@]12C(=O)Nc1ccc(Cl)cc12 (stereo partly shown)"
  measurement.target: "acetylcholinesterase enzyme from electric eel (Electrophorus electricus)"
  inhibition at 12.5 µg/mL: "43%"
- molecule: "O=C(c1ccc(Cl)cc1)C1C(c2cc3ccccc3s2)C2CSCN2[C@@]12C(=O)Nc1ccccc12 (stereo partly shown)"
  measurement.target: "acetylcholinesterase enzyme from electric eel (Electrophorus electricus)"
  inhibition at 12.5 µg/mL: "40.3%"
- molecule: "O=C(c1ccc(Br)cc1)C1C(c2cc3ccccc3s2)C2CSCN2[C@@]12C(=O)Nc1ccc(Cl)cc12 (stereo partly shown)"
  measurement.target: "acetylcholinesterase enzyme from electric eel (Electrophorus electricus)"
  inhibition at 12.5 µg/mL: "44.4%"
- molecule: "O=C(c1ccc(C(F)(F)F)cc1)C1C(c2cc3ccccc3s2)C2CSCN2[C@@]12C(=O)Nc1ccccc12 (stereo partly shown)"
  measurement.target: "acetylcholinesterase enzyme from electric eel (Electrophorus electricus)"
  inhibition at 12.5 µg/mL: "29.4%"
